Note to self: these molecules have Ki reported for hCRTH2 receptor (Homo sapiens (Human), UniProt Q9Y5Y4) in various publications.
Numbers only, in nM.

> print(dat)
                                   molecule                               studysystem  experimentalendpoint  endpointvalue
1  Cc1nn(Cc2cccc(-c3cc4ccc(Cl)cc4[nH]3)c2)c(C)c1CC(=O)O  hCRTH2 receptor (Homo sapiens (Human), UniProt Q9Y5Y4)                    Ki            397

List Ki for every entry below, keeping the order given.
1. Cc1c(Cc2ccc(Cl)cc2)c2cc(F)ccc2n1CC(=O)O
2. Cc1c(CC(=O)O)c2cccnc2n1Cc1ccc(S(=O)(=O)N2CCCCC2)cc1
3. CCc1nn(Cc2ccc(-c3nc4cc(Br)cnc4[nH]3)cc2F)c(CC)c1CC(=O)O
4. CCS(=O)(=O)c1ccc(Sc2c(C)c(CC(=O)O)c3ccc(F)cn23)cc1

[out]
[11, 240, 2.6, 0.8]

Each molecule below has a reported value. Please supply its Ki.
1. CC(c1ccc(F)cc1)c1nc(-c2ccc3c(=O)n(-c4ccc(F)cc4)c(CCCCC(=O)O)cc3c2)no1 (stereo not shown)
2. O=C(O)CN1C(=O)C2(CC(=O)N(Cc3cn4ccccc4n3)C2=O)c2cc(Cl)ccc21 (stereo not shown)

[out]
1. 12.7
2. 705

###

Several reports have described pKi for hCRTH2 receptor (Homo sapiens (Human), UniProt Q9Y5Y4); a selection of those results is presented here.
Numbers only, as −log10 of the molar value.

Example entries begin here.
> print(dat)
                                   molecule  endpointvalue
1  O=C(O)CCCCc1cc2cc(C(=O)NC3CC(=O)Nc4ccccc43)ccc2c(=O)n1-c1ccc(F)cc1 (centres unmarked)           7.68
2  Cc1ccc(NS(=O)(=O)c2c(C)n(CC(=O)O)c3ccc(F)cc23)cc1           5.91
3  CCc1nn(Cc2ccc(-c3nc4cc(C)c(Cl)cc4[nH]3)cc2F)c(CC)c1CC(=O)O           9.52

Look at each molecule and report its pKi.
1. N#Cc1cn(CC(=O)O)cc1-c1cc(C(F)(F)F)cc(Cl)c1F
2. O=C(CCCCc1cc2cc(-c3cc(Cc4ccc(F)cc4)on3)ccc2c(=O)n1-c1ccc(F)cc1)NS(=O)(=O)C1CC1

[out]
[7.40, 7.77]

###

This section presents Ki values reported for hCRTH2 receptor (Homo sapiens (Human), UniProt Q9Y5Y4) in the literature.
Numbers only, in µM.

> print(dat)
                                   compound  endpointvalue
1  CCOc1cc(S(=O)(=O)n2c(C)c(CC(=O)O)c3cccnc32)ccc1C#N          0.043
2  Cc1nn(Cc2ccc(-c3nc4c(C)cccc4[nH]3)cc2)c(C)c1CC(=O)O           0.01
3  O=C(O)CN1C(=O)C2(NC(=O)N(Cc3cc(Cl)ccc3F)C2=O)c2cc(Cl)ccc21 (stereo not shown)          0.016
4  Cc1c(Cc2ccc3cc(F)ccc3n2)c2cc(F)ccc2n1CC(=O)O         0.0013

Go through the list and state Ki for each entry.
1. Cc1nn(Cc2ccc(-c3nc4cc(Cl)c(Cl)cc4[nH]3)cc2)c(C)c1CC(=O)O
2. Cc1nn(Cc2ccc(NC(=O)c3oc4ccc(Br)cc4c3C)cc2F)c(C)c1CC(=O)O
3. O=C(O)CN1C(=O)C2(NC(=O)N(Cc3ccccc3)C2=O)c2cc(Cl)ccc21 (stereo not shown)

[out]
1: 0.0012; 2: 0.0003; 3: 0.3
